biological target: fucosyltransferase (FUT-8) (Homo sapiens, UniProt Q9BYC5); test: Inhibition of fucosyltransferase (FUT-8) activity, detection of fucosylation of the substrate protein; assay type: biochemical; details: 10 μM compound, incubated for 1 hour; read-out: Primary Screen (10 μM), inhibition value
Sequence (Q9BYC5 whole entry, species assumed): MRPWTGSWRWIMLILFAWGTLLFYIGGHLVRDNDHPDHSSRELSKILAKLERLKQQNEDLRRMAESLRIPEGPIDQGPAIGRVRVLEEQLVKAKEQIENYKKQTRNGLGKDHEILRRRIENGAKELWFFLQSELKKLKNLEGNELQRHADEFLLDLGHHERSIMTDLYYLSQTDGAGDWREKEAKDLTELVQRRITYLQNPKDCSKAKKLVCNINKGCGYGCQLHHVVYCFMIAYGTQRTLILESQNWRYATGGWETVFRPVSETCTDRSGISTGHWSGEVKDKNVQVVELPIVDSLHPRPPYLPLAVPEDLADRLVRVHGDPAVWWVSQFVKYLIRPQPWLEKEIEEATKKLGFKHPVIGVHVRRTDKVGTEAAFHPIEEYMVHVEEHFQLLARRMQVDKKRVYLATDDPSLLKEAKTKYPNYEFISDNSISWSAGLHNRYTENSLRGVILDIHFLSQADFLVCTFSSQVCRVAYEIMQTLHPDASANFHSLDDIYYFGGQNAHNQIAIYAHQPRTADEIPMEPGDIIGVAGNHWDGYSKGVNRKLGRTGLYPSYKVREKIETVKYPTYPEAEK
Structures can show the parent of a compound that is named as a salt.
readout: inhibition at 10 µM (%)
Your answer should be a plain number; it is taken to be in %.

Lookup: What does the record list as inhibition at 10 µM for CCN(CC)CCNc1ccc(CO)c2sc3ccccc3c(=O)c12 [Hycanthone, reference compound] ?
Found: 27

Lookup: What does the record list as inhibition at 10 µM for C[n+]1c2cc(N)ccc2cc2ccc(N)cc21 ?
Found: 47

Lookup: What does the record list as inhibition at 10 µM for COc1ccc(-c2cc(=O)c3c(O)cc(O)cc3o2)cc1O ?
Found: 35

Lookup: What does the record list as inhibition at 10 µM for O=c1cc(-c2ccccc2)oc2cccc(O)c12 ?
Found: 30

Lookup: What does the record list as inhibition at 10 µM for O=C(O[C@@H]1Cc2c(O)cc(O)cc2O[C@@H]1c1cc(O)c(O)c(O)c1)c1cc(O)c(O)c(O)c1 ?
Found: 39

Lookup: What does the record list as inhibition at 10 µM for O=c1cc(-c2ccccc2)oc2cc(O)cc(O)c12 ?
Found: 30

Lookup: What does the record list as inhibition at 10 µM for O=c1cc(-c2ccccc2)oc2cc(O)c(O)c(O)c12 ?
Found: 29

Lookup: What does the record list as inhibition at 10 µM for O=C1c2c(O)ccc(O)c2C(=O)c2c(NCCNCCO)ccc(NCCNCCO)c21 [Mitoxanthrone Hydrocloride, Mitoxanthrone Hydrochloride, reference compound] ?
Found: 49

Lookup: What does the record list as inhibition at 10 µM for O=C(O[C@@H]1Cc2c(O)cc(O)cc2O[C@@H]1c1ccc(O)c(O)c1)c1cc(O)c(O)c(O)c1 [Epicatechin Monogallate] ?
Found: 25

Lookup: What does the record list as inhibition at 10 µM for CCOc1ccc2nc3cc(N)ccc3c(N)c2c1 [Ethcridine Lactate, Etheridine Lactate] ?
Found: 26

Lookup: What does the record list as inhibition at 10 µM for O=c1c(O)cccc2cc(O)c(O)c(O)c12 ?
Found: 30

Lookup: What does the record list as inhibition at 10 µM for Cc1ccc(C(=O)Nc2ccc(S(=O)(=O)O)c3cc(S(=O)(=O)O)cc(S(=O)(=O)O)c23)cc1NC(=O)c1cccc(NC(=O)Nc2cccc(C(=O)Nc3cc(C(=O)Nc4ccc(S(=O)(=O)O)c5cc(S(=O)(=O)O)cc(S(=O)(=O)O)c45)ccc3C)c2)c1 [Suramin, reference compound] ?
Found: 70

Lookup: What does the record list as inhibition at 10 µM for O=C(O)C1=CC(=C(c2ccc(O)c(C(=O)O)c2)c2ccc(O)c(C(=O)O)c2)C=CC1=O ?
Found: 34

Lookup: What does the record list as inhibition at 10 µM for O=C(O[C@@H]1Cc2c(O)cc(O)cc2O[C@@H]1c1cc(O)c(=O)c2c(O)c(O)cc([C@H]3Oc4cc(O)cc(O)c4C[C@H]3O)c2c1)c1cc(O)c(O)c(O)c1 [Theaflavin Monogallate] ?
Found: 88

Lookup: What does the record list as inhibition at 10 µM for O=C1C=C2CC3(O)COc4c(ccc(O)c4O)C3=C2C=C1O (centres unmarked) ?
Found: 82

Lookup: What does the record list as inhibition at 10 µM for O=C1c2c(O)cccc2Cc2cccc(O)c21 [Anthralin, reference compound] ?
Found: 28

Lookup: What does the record list as inhibition at 10 µM for O=C(OC[C@H]1O[C@@H](OC(=O)c2cc(O)c(O)c(OC(=O)c3cc(O)c(O)c(O)c3)c2)[C@H](OC(=O)c2cc(O)c(O)c(OC(=O)c3cc(O)c(O)c(O)c3)c2)[C@@H](OC(=O)c2cc(O)c(O)c(OC(=O)c3cc(O)c(O)c(O)c3)c2)[C@@H]1OC(=O)c1cc(O)c(O)c(OC(=O)c2cc(O)c(O)c(O)c2)c1)c1cc(O)c(O)c(OC(=O)c2cc(O)c(O)c(O)c2)c1 ?
Found: 93
